Numbers sourced from BindingDB's records for doi:10.1021/jm0408316.

- PROTOCOL_SUMMARY: Inhibition of benzylamine binding to Benzylamine oxidase of porcine serum
ENDPOINT: IC50 (µM)

CCCNc1cncc(N(C)CCC)c1CN ... 350

P: CCSc1cncc(SCC)c1CN
Q: NCc1ccncc1NCC1CCCCC1
Among P and Q , whose measured IC50 is the smaller figure? Bench note: the answer is the label of the chosen record.
P

----------
- TARGET_OR_SYSTEM: Diamine oxidase (Sus scrofa)
- PROTOCOL_SUMMARY: Inhibition of putrescine binding to against Diamine oxidase of porcine kidney
ENDPOINT: IC50 (µM)

CC(C)Nc1cncc(N(C)C(C)C)c1CN ... 1

A: CNc1cncc(N(C)C)c1CN
B: CNc1cncc(NC)c1CN
Among A and B , whose measured IC50 is the smaller figure? Bench note: the answer is the label of the chosen record.
A

----------
- PROTOCOL_SUMMARY: Inhibition of benzylamine binding to Benzylamine oxidase of porcine serum
ENDPOINT: IC50 (µM)

Example cases with answers are listed next.
NCc1ccncc1NC1CCCCCC1 ... 79
NCc1ccncc1NC1CCCC1 ... 16
CNc1cnccc1CN ... 8
CC(C)(C)Sc1cncc(SC(C)(C)C)c1CN ... 1.6
NCc1ccncc1N ... 16

P: NCc1ccncc1N(C1CCCC1)C1CCCC1
Q: CCNc1cnccc1CN
Out of P and Q , name the one with the higher IC50. Bench note: the answer is the label of the chosen record.
P
(P: 100 µM, Q: 2 µM)

----------
- PROTOCOL_SUMMARY: Inhibition of benzylamine binding to Benzylamine oxidase of porcine serum
ENDPOINT: IC50 (nM)

Example cases with answers are listed next.
CC(C)Nc1cnccc1CN ... 100000
NCc1c(OCCCCO)cncc1OCCCCO ... 150

I: CCOc1cncc(OCc2ccccc2)c1CN
II: CCNc1cncc(N(C)CC)c1CN
Out of I and II , name the one with the higher IC50. Bench note: the answer is the label of the chosen record.
I
(I: 5000 nM, II: 20 nM)

----------
- PROTOCOL_SUMMARY: Inhibition of benzylamine binding to Benzylamine oxidase of porcine serum
pIC50: −log10 of the molar value.
ENDPOINT: pIC50

1: NCc1c(OCCO)cncc1OCCO
2: CCOc1cncc(OCC)c1CN
3: CNc1cncc(N(C)C)c1CN
4: CNc1cncc(NC)c1CN
# descending pIC50 order for the listed compounds Put the labels in the requested order and write them down.
2, 3, 4, 1
(2: 6.77, 3: 6.36, 4: 5.77, 1: 5.49)
